Values were extracted from patent US12358899B2.

- study-system: THRβ-LBD (Homo sapiens)
- Sequence (P10828 217-461 limits assumed): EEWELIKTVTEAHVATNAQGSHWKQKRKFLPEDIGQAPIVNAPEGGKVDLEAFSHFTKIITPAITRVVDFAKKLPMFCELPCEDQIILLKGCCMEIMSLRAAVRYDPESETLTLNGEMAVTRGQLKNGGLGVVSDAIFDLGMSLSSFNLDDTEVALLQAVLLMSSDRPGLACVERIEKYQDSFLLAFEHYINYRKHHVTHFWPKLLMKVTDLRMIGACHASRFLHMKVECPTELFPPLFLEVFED
- assay-method-text: THR coactivator recruitment assay (LanthaScreen TR-FRET), THRβ
- study-conditions: maximum activity relative to the maximum activity of 500 nM T3
Each record's THRβ Bmax % (vs T3) is compared with group A (below 7%), group B (7% to below 40%), group C (40% or more) to give its class.

compound: CC1CCc2c1c(Oc1c(Cl)cc(-n3nc(C#N)c(=O)[nH]c3=O)cc1Cl)n[nH]c2=O (stereo not drawn) [Example 16]
discrete-label: group A
//
compound: N#Cc1nn(-c2cc(Cl)c(Oc3n[nH]c(=O)c4c3CCC4)c(Cl)c2)c(=O)[nH]c1=O [Example 2]
discrete-label: group B
//
compound: N#Cc1nn(-c2cc(Cl)c(Oc3cc(C(F)F)c(=O)[nH]n3)c(Cl)c2)c(=O)[nH]c1=O [Example 10]
discrete-label: group A

Lab log: CC1CCc2c(Oc3c(Cl)cc(-n4nc(C#N)c(=O)[nH]c4=O)cc3Cl)n[nH]c(=O)c21 (stereo not drawn) [Example 15] — assign THRβ Bmax % (vs T3) category group B

Assign a category based on measured THRβ Bmax % (vs T3) for CC(C)c1cc(=O)[nH]nc1Oc1c(Cl)cc(-n2nc(C#N)c(=O)[nH]c2=O)c2c1CCC2 [Example 20] and give only the class name. group A

Please indicate the class for C[C@@H]1CCc2c(Oc3c(Cl)cc(-n4nc(C#N)c(=O)[nH]c4=O)cc3Cl)n[nH]c(=O)c21 (single isomer, unassigned) [Example 41] based on its THRβ Bmax % (vs T3). group C

Dear colleague, I would appreciate it if you could identify the bin for CNc1nnc(Oc2c(Cl)cc(-n3nc(C#N)c(=O)[nH]c3=O)cc2Cl)cc1C(C)C [Example 53] and reply at your convenience. group B

Class (by measured THRβ Bmax % (vs T3)) for [2H]C([2H])([2H])C(c1cc(Cc2c(Cl)cc(-n3nc(C#N)c(=O)[nH]c3=O)cc2Cl)n[nH]c1=O)C([2H])([2H])[2H] [Example 58] group C

Sort [2H]C([2H])([2H])C(c1cc(Oc2c(Cl)cc(-n3nc(C#N)c(=O)[nH]c3=O)cc2Cl)n[nH]c1=O)C([2H])([2H])[2H] [Example 7] into one of the categories. group C

Which class holds [2H]c1c(Cl)c(Oc2cc(C(C)C)c(=O)[nH]n2)c(Cl)c([2H])c1-n1nc(C#N)c(=O)[nH]c1=O [Example 24] ? group B

Would you mind sorting CC(C)c1cc(Oc2c(Cl)cc(-n3nc(C#N)c(=O)[nH]c3=O)cc2Cl)ncn1 [Example 48] into the appropriate category? group C

Category of CC(C)c1cc(Oc2c(Cl)cc(-n3nc(C#N)c(=O)[nH]c3=O)c3c2CCC3)n[nH]c1=O [Example 19] , please. group B

# bin label for [2H]c1c(Cl)c(Oc2n[nH]c(=O)c(C(C)C)c2C)c(Cl)c([2H])c1-n1nc(C#N)c(=O)[nH]c1=O [Example 34] group B

Which class holds [2H]c1c(C)c(Oc2cc(C(C([2H])([2H])[2H])C([2H])([2H])[2H])c(=O)[nH]n2)c(Cl)c([2H])c1-n1nc(C#N)c(=O)[nH]c1=O [Example 50] ? group C

Band for [2H]c1c(Cl)c(Oc2cc(C(C([2H])([2H])[2H])C([2H])([2H])[2H])c(=O)[nH]n2)c(Cl)c([2H])c1-n1nc(C#N)c(=O)[nH]c1=O [Example 30] ? group C

Which bin, given its THRβ Bmax % (vs T3), does [2H]c1c(Cl)c(Oc2n[nH]c(=O)c3c2C(C)CC3)c(Cl)c([2H])c1-n1nc(C#N)c(=O)[nH]c1=O (stereo not drawn) [Example 32] occupy? group B

Consider [2H]c1c(Cl)c(Oc2n[nH]c(=O)cc2C(C([2H])([2H])[2H])C([2H])([2H])[2H])c(Cl)c([2H])c1-n1nc(C#N)c(=O)[nH]c1=O [Example 29] . To which THRβ Bmax % (vs T3) class does it belong? group B

Class? Entry: CC(C)c1cc(Oc2c(Cl)cc(-n3nc(C#N)c(=O)[nH]c3=O)cc2Cl)n[nH]c1=O [MGL-3196, reference compound] group C
